Molecular target: Vasopressin V1 Receptor (Rattus norvegicus, UniProt P30560)
Sequence (P30560 whole entry): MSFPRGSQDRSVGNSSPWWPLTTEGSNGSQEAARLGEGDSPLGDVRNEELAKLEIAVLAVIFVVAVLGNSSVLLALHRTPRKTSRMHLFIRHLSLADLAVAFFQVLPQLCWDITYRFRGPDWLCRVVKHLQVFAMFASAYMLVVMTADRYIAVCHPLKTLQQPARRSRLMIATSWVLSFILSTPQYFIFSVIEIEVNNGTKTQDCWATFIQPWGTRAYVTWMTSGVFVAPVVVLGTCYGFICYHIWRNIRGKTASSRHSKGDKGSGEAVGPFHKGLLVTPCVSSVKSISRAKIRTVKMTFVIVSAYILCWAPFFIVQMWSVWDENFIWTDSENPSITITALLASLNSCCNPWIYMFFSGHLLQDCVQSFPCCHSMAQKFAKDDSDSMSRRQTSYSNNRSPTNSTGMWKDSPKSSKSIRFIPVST
Assay: biochemical
Type: binding, rat (Sprague-Dawley, female; liver crude membrane)
Conditions: 1 h; 10^-7 M; inhibition rate at this concentration; read-out: Binding Rate of Vasopressin V1 Receptor
Counter-ions that a name gives are not always drawn.
Value Type: inhibition at 0.1 µM (%)

CN(C)[C@H]1C[C@@H]2CN(C(=O)c3ccc(NC(=O)c4ccccc4-c4ccccc4)cc3)c3ccccc3N2C1 [Example 21] | 19.5
Cc1ccc(-c2ccccc2C(=O)Nc2ccc(C(=O)N3C[C@H]4C[C@H](O)CN4c4ccccc43)cc2)cc1 [Example 18] | 58.3
Cc1ccc(-c2ccccc2C(=O)Nc2ccc(C(=O)N3C[C@H]4CC(=O)CN4c4ccccc43)cc2)cc1 [Example 24] | 16.5
CC(=O)O[C@H]1C[C@@H]2CN(C(=O)c3ccc(NC(=O)c4ccccc4-c4ccc(C)cc4)cc3)c3ccccc3N2C1 [Example 16] | 68.2

A. O=C(Nc1ccc(C(=O)N2CC[C@@H]3C[C@@H](O)CN3c3ccccc32)cc1)c1ccccc1-c1ccccc1 [Example 50]
B. O=C(Nc1ccc(C(=O)N2C[C@@H]3CCCN3Cc3ccccc32)cc1)c1ccccc1-c1ccccc1 [Example 41, Hydrochloride]
C. O=C(Nc1ccc(C(=O)N2C[C@@H]3CCCN3C(=S)c3ccccc32)cc1)c1ccccc1-c1ccccc1 [Example 37]
In: Put the compounds in ascending order of inhibition at 0.1 µM. To answer, arrange all of the labels according to the requested order.
Out: C, B, A
(C: 2.8%, B: 6.6%, A: 92.4%)

---

Test system: male ICR mice
Experiment: Acute Toxicity Test
Format: in vivo
Conditions: 150 mg/kg, oral, 7 days observation
Value Type: number of death out of 5 or 6 animals

The examples below pair each entry with its known result.
O=C(Nc1ccc(C(=O)N2C[C@@H]3CCCN3C(=O)c3ccccc32)cc1)c1ccccc1-c1ccccc1 | 0/6
O=C1C[C@H]2CN(C(=O)c3ccc(NC(=O)c4ccccc4-c4ccccc4)cc3)c3ccccc3C(=O)N2C1 | 0/6
Cc1nc2c([nH]1)-c1ccccc1N(C(=O)c1ccc(NC(=O)c3ccccc3-c3ccccc3)cc1)CC2 [Comparative Example 5, reference compound] | 0/5

Pending compound:
In: Recorded number of death out of 5 or 6 animals for Cc1ccc(-c2ccccc2C(=O)Nc2ccc(C(=O)N3C[C@H]4C[C@H](O)CN4c4ccccc43)cc2)cc1 , please?
Out: 0/6

---

Biological target: Vasopressin V2 Receptor (Rattus norvegicus, UniProt Q00788)
Sequence (Q00788 whole entry): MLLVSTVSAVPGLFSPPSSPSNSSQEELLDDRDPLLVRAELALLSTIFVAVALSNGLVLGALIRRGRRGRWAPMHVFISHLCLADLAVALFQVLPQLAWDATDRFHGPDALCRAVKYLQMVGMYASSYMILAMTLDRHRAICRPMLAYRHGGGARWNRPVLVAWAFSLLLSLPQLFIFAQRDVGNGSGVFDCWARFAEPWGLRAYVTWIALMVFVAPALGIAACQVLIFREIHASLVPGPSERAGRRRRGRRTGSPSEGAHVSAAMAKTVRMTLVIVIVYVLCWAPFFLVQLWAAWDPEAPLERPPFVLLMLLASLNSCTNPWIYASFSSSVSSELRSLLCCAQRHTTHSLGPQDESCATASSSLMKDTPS
Assay: biochemical
Assay type: binding, rat (Sprague-Dawley, female; kidney crude membrane)
Conditions: 1 h; 10^-7 M; inhibition rate at this concentration; read-out: Binding Rate of Vasopressin V2 Receptor
Counter-ions that a name gives are not always drawn.
Value Type: inhibition at 0.1 µM (%)

Cc1ccc(-c2ccccc2C(=O)Nc2ccc(C(=O)N3C[C@H]4CCCN4Cc4ccccc43)cc2)cc1 [Example 44, Hydrochloride] | 96.7
O=C(Nc1ccc(C(=O)N2C[C@@H]3CCCN3C(=O)c3ccccc32)cc1)c1ccccc1-c1ccccc1 | 100
O=C(Nc1ccc(C(=O)N2C[C@H]3C[C@H](O)CN3c3ccccc32)cc1)c1ccccc1-c1ccccc1 | 100
Cc1ccc(-c2ccccc2C(=O)Nc2ccc(C(=O)N3C[C@@H]4CCCN4C(=S)c4ccccc43)cc2)cc1 | 100
O=C(Nc1ccc(C(=O)N2CC[C@H]3C[C@H](O)CN3c3ccccc32)cc1)c1ccccc1-c1ccccc1 | 95.1
Cc1ccc(-c2ccccc2C(=O)Nc2ccc(C(=O)N3C[C@@H]4C[C@H](O)CN4c4ccccc43)cc2)cc1 | 100
Cc1ccc(-c2ccccc2C(=O)Nc2ccc(C(=O)N3C[C@@H]4CCCN4C(=O)c4ccccc43)cc2)cc1 | 100
O=C(Nc1ccc(C(=O)N2CC[C@H]3C[C@@H](O)CN3c3ccccc32)cc1)c1ccccc1-c1ccccc1 | 100
O=C(Nc1ccc(C(=O)N2CC[C@@H]3C[C@@H](O)CN3c3ccccc32)cc1)c1ccccc1-c1ccccc1 | 97.8

---

System: male ICR mice
Assay: Acute Toxicity Test
Format: in vivo
Details: 500 mg/kg, oral, 7 days observation
Method: To groups of male ICR mice (6-week-old) each consisting of 5 animals, there were orally administered the compounds of Examples 13, 18, 25 and 30 and Comparative Examples 2 and 5 suspended in 5% gum arabic solution at doses of 150, 500 and 1500 mg/kg, followed by observation of the general symptoms of these animals during 7 days after the administration to thus evaluate the number of death. […]
Value Type: number of death out of 5 or 6 animals

O=C(Nc1ccc(C(=O)N2C[C@H]3C[C@@H](O)CN3c3ccccc32)cc1)c1ccccc1-c1ccccc1 [Example 13] | 0/5
O=C1C[C@H]2CN(C(=O)c3ccc(NC(=O)c4ccccc4-c4ccccc4)cc3)c3ccccc3C(=O)N2C1 [Example 30] | 0/6
Cc1ccc(-c2ccccc2C(=O)Nc2ccc(C(=O)N3C[C@H]4C[C@H](O)CN4c4ccccc43)cc2)cc1 [Example 18] | 0/6

In: Recorded number of death out of 5 or 6 animals for O=C(Nc1ccc(C(=O)N2C[C@@H]3CCCN3C(=O)c3ccccc32)cc1)c1ccccc1-c1ccccc1 [Example 25] , please?
Out: 0/6

---

# maps each entry to its pIC50
Molecular target: Vasopressin V1 Receptor (Rattus norvegicus, UniProt P30560)
Test: biochemical
Type: binding, rat (Sprague-Dawley, female; liver crude membrane)
Settings: [3H] vasopressin V1 antagonist 2 nM, 25° C., 60 minutes; read-out: Affinity for Vasopressin V1 Receptor, IC50
Units for pIC50: none; it is -log10 of a concentration expressed in mol/L.

In: Recorded pIC50 for Cl.O=C(Nc1ccc(C(=O)N2C[C@H]3C[C@H](O)CN3Cc3ccccc32)cc1)c1ccccc1-c1ccccc1 [Example 47, Hydrochloride] , please?
Out: 7.21

In: Another compound to check: Cc1ccc(-c2ccccc2C(=O)Nc2ccc(C(=O)N3C[C@H]4C[C@H](O)CN4c4ccccc43)cc2)cc1
Out: 7.18

---

Target: Vasopressin V1 Receptor (Rattus norvegicus, UniProt P30560)
Assay: biochemical
Type: binding, rat (Sprague-Dawley, female; liver crude membrane)
Details: 1 h; 10^-7 M; inhibition rate at this concentration; read-out: Binding Rate of Vasopressin V1 Receptor
Value Type: inhibition at 0.1 µM (%)

A. CC(=O)O[C@H]1C[C@@H]2CCN(C(=O)c3ccc(NC(=O)c4ccccc4-c4ccccc4)cc3)c3ccccc3N2C1
B. O=C(Nc1ccc(C(=O)N2C[C@H]3CCCN3c3ccccc32)cc1)c1ccccc1-c1ccccc1
C. O=C(Nc1ccc(C(=O)N2CC[C@H]3C[C@@H](O)CN3c3ccccc32)cc1)c1ccccc1-c1ccccc1
D. Cc1ccc(-c2ccccc2C(=O)Nc2ccc(C(=O)N3C[C@@H]4CCCN4C(=S)c4ccccc43)cc2)cc1
In: From the records above, write out the order of decreasing inhibition at 0.1 µM. To answer, arrange all of the labels according to the requested order.
Out: C, A, B, D

---

// endpoint IC50 / system Vasopressin V2 Receptor (Rattus norvegicus, UniProt Q00788)
Report the value in nM with no unit label.

Cl.O=C(Nc1ccc(C(=O)N2C[C@H]3C[C@H](O)CN3Cc3ccccc32)cc1)c1ccccc1-c1ccccc1 [Example 47, Hydrochloride] | 0.77

In: Param readout = IC50; param system = Vasopressin V2 Receptor (Rattus norvegicus, UniProt Q00788); param query = O=C(Nc1ccc(C(=O)N2C[C@@H]3CCCN3C(=O)c3ccccc32)cc1)c1ccccc1-c1ccccc1 ; response: value
Out: 1.6

In: Another compound to check: Cc1ccc(-c2ccccc2C(=O)Nc2ccc(C(=O)N3C[C@H]4C[C@H](O)CN4c4ccccc43)cc2)cc1
Out: 0.18

---

Molecular target: UniProtKB P30560
Experiment: biochemical
Assay type: binding, rat (Sprague-Dawley, female; liver crude membrane)
Conditions: 1 h; 10^-7 M; inhibition rate at this concentration; read-out: Binding Rate of Vasopressin V1 Receptor
Where a name gives a salt, the structure may show the parent alone.
Value Type: inhibition at 0.1 µM (%)

Cc1ccc(-c2ccccc2C(=O)Nc2ccc(C(=O)N3C[C@H]4C[C@H](N(C)C)CN4c4ccccc43)cc2)cc1 [Example 22, Hydrochloride] | 33.5

a. O=C(Nc1ccc(C(=O)N2C[C@@H]3C[C@H](O)CN3C(=O)c3ccccc32)cc1)c1ccccc1-c1ccccc1
b. O=C(Nc1ccc(C(=O)N2CC[C@H]3C[C@H](O)CN3c3ccccc32)cc1)c1ccccc1-c1ccccc1
c. Cc1ccc(-c2ccccc2C(=O)Nc2ccc(C(=O)N3C[C@@H]4CCCN4C(=O)c4ccccc43)cc2)cc1
In: hey, can you rank those molecules up there by inhibition at 0.1 µM? biggest number first please To answer, arrange all of the labels according to the requested order.
Out: b, a, c
(b: 98.6%, a: 18.9%, c: 4%)

A. Cc1ccc(-c2ccccc2C(=O)Nc2ccc(C(=O)N3C[C@@H]4C[C@H](O)CN4c4ccccc43)cc2)cc1
B. Cc1ccc(-c2ccccc2C(=O)Nc2ccc(C(=O)N3C[C@H]4CCCN4Cc4ccccc43)cc2)cc1 [Example 44, Hydrochloride]
In: Input pair: A , B . Output: entry with lower inhibition at 0.1 µM. Identify your selection by its label.
Out: A
(A: 16.3%, B: 48.2%)
